Consider the following molecules and their measured pH 2 solubility readings.
settings: 0.1N HCl, 1.0% DMSO, 24-hour incubation at ambient temperature, maximum theoretical 100 μM; first value of the cell
Field format: number, assumed μM, no unit text.

Recorded results for 3 molecules are shown here.
>>> meas_value("CC(C)(C#Cc1ccc(-c2ccc(Cl)c3c(N(C(=O)OCCNC(=N)N)S(C)(=O)=O)nn(CC(F)(F)F)c23)c([C@H](Cc2cc(F)cc(F)c2)NC(=O)Cn2nc(C(F)(F)F)c3c2C(F)(F)[C@@H]2C[C@H]32)n1)S(C)(=O)=O")
78
>>> meas_value("CC(C)(C#Cc1ccc(-c2ccc(Cl)c3c(N(C(=O)OCCN4CCOCC4)S(C)(=O)=O)nn(CC(F)(F)F)c23)c([C@H](Cc2cc(F)cc(F)c2)NC(=O)Cn2nc(C(F)(F)F)c3c2C(F)(F)[C@@H]2C[C@H]32)n1)S(C)(=O)=O")
24
>>> meas_value("CC(NC(=O)N(c1nn(CC(F)(F)F)c2c(-c3ccc(C#CC(C)(C)S(C)(=O)=O)nc3[C@H](Cc3cc(F)cc(F)c3)NC(=O)Cn3nc(C(F)(F)F)c4c3C(F)(F)[C@@H]3C[C@H]43)ccc(Cl)c12)S(C)(=O)=O)(C(=O)O)C(=O)O")
1

// next item, pH 2 solubility requested
Bench note: what pH 2 solubility did `CC(C)(C#Cc1ccc(-c2ccc(Cl)c3c(N(C(=O)OCCOP(=O)(O)O)S(C)(=O)=O)nn(CC(F)(F)F)c23)c([C@H](Cc2cc(F)cc(F)c2)NC(=O)Cn2nc(C(F)(F)F)c3c2C(F)(F)[C@@H]2C[C@H]32)n1)S(C)(=O)=O` show?
2

###

conditions: 1×PBS buffer (pH 7.4), 1.0% DMSO, 24-hour incubation at ambient temperature, maximum theoretical 100 μM; second value of the cell
Consider the following compounds and their measured pH 7 solubility readings.
Field format: number, assumed μM, no unit text.

>>> meas_value("CC(C)(C#Cc1ccc(-c2ccc(Cl)c3c(N(C(=O)NC(CO)CO)S(C)(=O)=O)nn(CC(F)(F)F)c23)c([C@H](Cc2cc(F)cc(F)c2)NC(=O)Cn2nc(C(F)(F)F)c3c2C(F)(F)[C@@H]2C[C@H]32)n1)S(C)(=O)=O")
5

Bench note: what pH 7 solubility did `CC(C)(C#Cc1ccc(-c2ccc(Cl)c3c(N(C(=O)OCCCCCOP(=O)(O)O)S(C)(=O)=O)nn(CC(F)(F)F)c23)c([C@H](Cc2cc(F)cc(F)c2)NC(=O)Cn2nc(C(F)(F)F)c3c2C(F)(F)[C@@H]2C[C@H]32)n1)S(C)(=O)=O` show?
89

###

details: 0.1N HCl, 1.0% DMSO, 24-hour incubation at ambient temperature, maximum theoretical 100 μM; first value of the cell
metric: pH 2 solubility

>>> meas_value("CN1CCN(CC(=O)N(c2nn(CC(F)(F)F)c3c(-c4ccc(C#CC(C)(C)S(C)(=O)=O)nc4[C@H](Cc4cc(F)cc(F)c4)NC(=O)Cn4nc(C(F)(F)F)c5c4C(F)(F)[C@@H]4C[C@H]54)ccc(Cl)c23)S(C)(=O)=O)CC1")
"50 μM"
>>> meas_value("C[C@@H](OC(=O)N(c1nn(CC(F)(F)F)c2c(-c3ccc(C#CC(C)(C)S(C)(=O)=O)nc3[C@H](Cc3cc(F)cc(F)c3)NC(=O)Cn3nc(C(F)(F)F)c4c3C(F)(F)[C@@H]3C[C@H]43)ccc(Cl)c12)S(C)(=O)=O)C(=O)O")
"1/1 μM"
>>> meas_value("CC(C)(C#Cc1ccc(-c2ccc(Cl)c3c(N(C(=O)N(CC(=O)O)CC(=O)O)S(C)(=O)=O)nn(CC(F)(F)F)c23)c([C@H](Cc2cc(F)cc(F)c2)NC(=O)Cn2nc(C(F)(F)F)c3c2C(F)(F)[C@@H]2C[C@H]32)n1)S(C)(=O)=O")
"14 μM"

// next item, pH 2 solubility requested
Bench note: what pH 2 solubility did `CC(C)(C#Cc1ccc(-c2ccc(Cl)c3c(N(C(=O)NCCN4CCNCC4)S(C)(=O)=O)nn(CC(F)(F)F)c23)c([C@H](Cc2cc(F)cc(F)c2)NC(=O)Cn2nc(C(F)(F)F)c3c2C(F)(F)[C@@H]2C[C@H]32)n1)S(C)(=O)=O` show?
72 μM

Origin of values: patent US12404262B2
